experiment: Pharmacokinetic test in SD rats, intragastric 50 mg/kg of salts and crystalline forms; format: in vivo; details: male, SD, rat, plasma, po, 50 mg/kg, 50 mg/kg (in free base)
Readout kind: AUC(0-inf)
Note: a bare number is incomplete; add the unit.

Value of measured AUC(0-inf) for the entry `CC(C)(C)ONc1nc(Nc2ccnc(C(F)(F)F)c2)nc(-c2cccc(C(F)(F)F)n2)n1.CS(=O)(=O)O` : 47400 ng·h/mL

----------
assay: Pharmacokinetic test in SD rats, intragastric 50 mg/kg of salts and crystalline forms; type: in vivo; settings: male, SD, rat, plasma, po, 50 mg/kg, 50 mg/kg (in free base), read-out: Cmax
Readout kind: Cmax (ng/mL)
The response must be a number in ng/mL with no trailing unit.

`CC(C)(C)ONc1nc(Nc2ccnc(C(F)(F)F)c2)nc(-c2cccc(C(F)(F)F)n2)n1.CS(=O)(=O)O` has a reported Cmax of 1730
